Target: Prostaglandin G/H synthase 2 (Homo sapiens)
Sequence (P35354 whole entry): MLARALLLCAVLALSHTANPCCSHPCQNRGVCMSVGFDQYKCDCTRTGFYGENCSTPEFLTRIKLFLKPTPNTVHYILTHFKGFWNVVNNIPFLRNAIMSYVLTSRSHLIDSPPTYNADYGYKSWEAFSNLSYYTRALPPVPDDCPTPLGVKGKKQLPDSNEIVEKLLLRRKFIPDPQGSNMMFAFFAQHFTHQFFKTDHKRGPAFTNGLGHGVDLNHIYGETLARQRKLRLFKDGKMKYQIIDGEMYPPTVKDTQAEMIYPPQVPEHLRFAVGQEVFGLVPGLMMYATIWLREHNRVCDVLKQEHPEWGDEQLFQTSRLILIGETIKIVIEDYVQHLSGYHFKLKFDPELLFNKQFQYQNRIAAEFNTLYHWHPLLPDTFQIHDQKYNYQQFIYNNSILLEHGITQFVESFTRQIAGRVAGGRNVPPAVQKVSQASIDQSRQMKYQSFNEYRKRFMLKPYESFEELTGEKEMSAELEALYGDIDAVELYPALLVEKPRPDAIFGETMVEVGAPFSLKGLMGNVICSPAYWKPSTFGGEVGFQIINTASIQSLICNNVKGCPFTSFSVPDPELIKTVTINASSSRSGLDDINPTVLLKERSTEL
Assay: Inhibition of COX2 (unknown origin)
pIC50: −log10 of the molar value.
quantity_name: pIC50

Example entries and their recorded answers appear below.
> print(dat)
                              smiles.entry  quantity.name  observed.measurement
1  CSc1ccc(-c2cn3c(c2-c2ccc(C)cc2)CCC3)cc1          pIC50                  6.05
2       Cc1ccc(-c2cn3c(c2-c2ccccc2)CCC3)s1          pIC50                  5.74
3  CSc1ccc(-c2cn3c(c2-c2ccc(F)cc2)CCC3)cc1          pIC50                  7.00

[a] CC1(C)Cn2c(CC(=O)O)c(-c3ccc(Cl)cc3)c(-c3ccccc3)c2C1=O
[b] Cc1ccc(-c2c(-c3ccc(S(C)(=O)=O)cc3)cn3c2CCC3)cc1
Ask | Of the two listed items, a and b , which carries the larger pIC50 figure? State the label of the item chosen.
Reply | b
(b: 8.30, a: 5.68)

* * *

Target: Prostaglandin G/H synthase 1 (Bos taurus) (UniProt O62664)
Sequence (O62664 whole entry): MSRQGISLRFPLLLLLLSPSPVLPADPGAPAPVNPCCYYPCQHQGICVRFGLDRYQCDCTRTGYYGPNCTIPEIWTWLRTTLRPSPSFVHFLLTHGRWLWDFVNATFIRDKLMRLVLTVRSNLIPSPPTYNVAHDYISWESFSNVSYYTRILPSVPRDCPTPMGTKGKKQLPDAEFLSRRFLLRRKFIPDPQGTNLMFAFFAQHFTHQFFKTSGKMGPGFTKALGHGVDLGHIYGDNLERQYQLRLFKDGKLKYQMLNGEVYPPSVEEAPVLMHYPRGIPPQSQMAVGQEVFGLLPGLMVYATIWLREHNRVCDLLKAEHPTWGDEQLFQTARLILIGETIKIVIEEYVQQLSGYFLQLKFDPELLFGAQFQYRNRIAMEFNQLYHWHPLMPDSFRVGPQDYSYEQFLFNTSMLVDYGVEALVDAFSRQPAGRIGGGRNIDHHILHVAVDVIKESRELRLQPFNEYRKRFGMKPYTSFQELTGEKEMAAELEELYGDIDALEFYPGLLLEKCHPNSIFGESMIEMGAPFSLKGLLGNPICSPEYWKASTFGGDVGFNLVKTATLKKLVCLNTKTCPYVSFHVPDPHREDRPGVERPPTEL
Experiment: Inhibition of COX1 in bovine thrombocyte at 10 uM relative to control
quantity_name: IP (%)

Example entries and their recorded answers appear below.
> print(dat)
                               smiles.entry  scale.unit  observed.measurement
1  CS(=O)(=O)c1ccc(-c2cn3c(c2-c2ccccc2)CCC3)cc1           %                    25
2  CS(=O)(=O)Nc1ccc(-c2cn3c(c2-c2ccc(Cl)cc2)CCC3)cc1           %                     0
3   CSc1ccc(-c2cn3c(c2-c2ccc(F)cc2)CCC3)cc1           %                    28
4         c1ccc(-c2c(-c3ccco3)cn3c2CCC3)cc1           %                    20

[a] Brc1ccc(-c2cn3c(c2-c2ccccc2)CCC3)s1
[b] Cc1ccc(-c2cn3c(c2-c2ccccc2)CCC3)s1
[c] O=C(O)/C=C/c1c(-c2ccc(CCc3ccccc3)cc2)c(-c2ccccc2)c2n1CCC2
[d] CS(=O)(=O)Nc1ccc(-c2cn3c(c2-c2ccccc2)CCC3)cc1
Ask | Returns the items ordered by IP, from maximum to minimum. Returns: the labels listed in the requested order.
Reply | c, a, d, b

* * *

Target: Prostaglandin G/H synthase 1 (Ovis aries) (UniProt P05979)
Sequence (P05979 whole entry): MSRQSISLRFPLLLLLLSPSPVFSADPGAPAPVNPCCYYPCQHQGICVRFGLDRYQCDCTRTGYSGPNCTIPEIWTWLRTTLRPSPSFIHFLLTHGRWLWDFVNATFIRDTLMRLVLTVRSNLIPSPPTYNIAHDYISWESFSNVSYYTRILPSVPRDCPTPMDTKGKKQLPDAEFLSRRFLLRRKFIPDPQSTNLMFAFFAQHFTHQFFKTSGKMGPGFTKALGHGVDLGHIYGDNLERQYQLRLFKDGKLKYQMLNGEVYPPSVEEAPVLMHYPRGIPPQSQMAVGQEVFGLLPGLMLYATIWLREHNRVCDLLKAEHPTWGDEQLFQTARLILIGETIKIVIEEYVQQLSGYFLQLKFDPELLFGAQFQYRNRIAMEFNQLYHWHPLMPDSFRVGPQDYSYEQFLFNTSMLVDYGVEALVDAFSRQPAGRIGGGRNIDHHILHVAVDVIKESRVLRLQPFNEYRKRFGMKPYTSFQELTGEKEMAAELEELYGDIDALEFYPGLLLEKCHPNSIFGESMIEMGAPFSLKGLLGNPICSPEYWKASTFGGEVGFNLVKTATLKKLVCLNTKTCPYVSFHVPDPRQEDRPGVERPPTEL
Test: Inhibition of COX1 in ovine thrombocyte at 10 uM relative to control
quantity_name: IP (%)

Example entries and their recorded answers appear below.
> print(dat)
                                   molecule  quantity.name  observed.measurement
1  O=C(O)/C=C/c1c(-c2ccc(O)cc2)c(-c2ccccc2)c2n1CCC2             IP                     0
2  O=C(O)/C=C/c1c(-c2ccc(Sc3ccccc3)cc2)c(-c2ccccc2)c2n1CCC2             IP                    40
3  O=C(O)/C=C/c1c(-c2ccc(Nc3ccc(Cl)cc3)cc2)c(-c2ccccc2)c2n1CCC2             IP                    12

[P] O=C(O)/C=C/c1c(-c2ccc(Nc3ccccc3)cc2)c(-c2ccccc2)c2n1CCC2
[Q] O=C(O)/C=C/c1c(-c2ccc(Cc3ccccc3)cc2)c(-c2ccccc2)c2n1CCC2
Ask | In terms of reported IP, does P or Q have the smaller number? State the label of the item chosen.
Reply | Q

[A] O=C(O)/C=C/c1c(-c2ccc(-c3ccccc3)cc2)c(-c2ccccc2)c2n1CCC2
[B] O=C(O)/C=C/c1c(-c2ccc(S(=O)(=O)c3ccccc3)cc2)c(-c2ccccc2)c2n1CCC2
Ask | In terms of reported IP, does A or B have the smaller number? State the label of the item chosen.
Reply | B
(B: 0%, A: 35%)

* * *

Biological target: Prostaglandin G/H synthase 1 (Homo sapiens)
Sequence (P23219 whole entry): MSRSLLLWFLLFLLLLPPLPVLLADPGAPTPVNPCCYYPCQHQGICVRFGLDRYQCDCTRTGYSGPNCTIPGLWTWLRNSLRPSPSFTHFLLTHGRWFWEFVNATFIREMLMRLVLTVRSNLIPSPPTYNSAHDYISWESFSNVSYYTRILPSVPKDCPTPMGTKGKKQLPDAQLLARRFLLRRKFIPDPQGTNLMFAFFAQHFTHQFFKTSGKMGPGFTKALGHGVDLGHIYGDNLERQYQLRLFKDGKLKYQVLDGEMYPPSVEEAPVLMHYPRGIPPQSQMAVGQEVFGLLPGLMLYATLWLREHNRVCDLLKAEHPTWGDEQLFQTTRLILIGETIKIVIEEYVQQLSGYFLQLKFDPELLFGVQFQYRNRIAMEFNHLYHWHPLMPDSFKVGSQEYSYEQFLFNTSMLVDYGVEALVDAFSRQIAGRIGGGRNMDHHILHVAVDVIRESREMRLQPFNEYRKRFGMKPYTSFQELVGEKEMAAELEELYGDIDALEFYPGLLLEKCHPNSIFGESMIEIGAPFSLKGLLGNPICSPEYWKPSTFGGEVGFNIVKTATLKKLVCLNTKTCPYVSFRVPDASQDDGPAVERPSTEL
Assay: Inhibition of COX1 (unknown origin)
quantity_name: IC50 (nM)

Example entries and their recorded answers appear below.
> print(dat)
                               smiles.entry  observed.measurement
1  CS(=O)(=O)c1ccc(-c2cn3c(c2-c2ccc(Cl)cc2)CCC3)cc1                  8200
2      CSc1ccc(-c2cn3c(c2-c2ccccc2)CCC3)cc1                  1100
3   CSc1ccc(-c2cn3c(c2-c2ccc(C)cc2)CCC3)cc1                    30
4  O=C(O)/C=C/c1c(-c2ccc(SCc3ccccc3)cc2)c(-c2ccccc2)c2n1CCC2                  5500
5  CC1(C)Cc2c(-c3ccccc3)c(-c3ccco3)c(CC(=O)O)n2C1                   130
6  CC1(C)Cc2c(-c3ccccc3)c(-c3ccsc3)c(CC(=O)O)n2C1                    60
7       Clc1ccc(-c2cn3c(c2-c2ccccc2)CCC3)s1                  3900
8  Cc1c(-c2ccc(Cl)cc2)c(-c2ccccc2)c2n1CC(C)(C)C2=O                   950

[I] O=C(O)/C=C/c1c(-c2ccc(CCc3ccccc3)cc2)c(-c2ccccc2)c2n1CCC2
[II] CC1(C)Cc2c(-c3ccccc3)c(-c3occ4ccccc34)c(CC(=O)O)n2C1
Ask | In terms of reported IC50, does I or II have the smaller number? State the label of the item chosen.
Reply | II
(II: 20 nM, I: 10000 nM)

[1] CS(=O)(=O)c1ccc(-c2cn3c(c2-c2ccc(F)cc2)CCC3)cc1
[2] Cc1ccc(-c2c(-c3ccc(S(C)(=O)=O)cc3)cn3c2CCC3)cc1
[3] CC1(C)Cc2c(-c3ccccc3)c(-c3ccc(Cl)s3)c(CC(=O)O)n2C1
Ask | With regard to IC50, arrange the entries in ascending order, please. Returns: the labels listed in the requested order.
Reply | 3, 2, 1
(3: 210 nM, 2: 700 nM, 1: 4300 nM)

* * *

Target: Prostaglandin G/H synthase 2 (Homo sapiens, UniProt P35354)
Assay: Inhibition of COX2 (unknown origin)
quantity_name: IC50 (nM)

Example entries and their recorded answers appear below.
> print(dat)
                                   molecule  observed.measurement
1  CS(=O)(=O)c1ccc(-c2cn3c(c2-c2ccc(F)cc2)CCC3)cc1                   160
2  CS(=O)(=O)Nc1ccc(-c2cn3c(c2-c2ccccc2)CCC3)cc1                  3600
3  CS(=O)(=O)c1ccc(-c2cn3c(c2-c2ccc(Cl)cc2)CCC3)cc1                     8
4  CS(=O)(=O)c1ccc(-c2cn3c(c2-c2ccccc2)CCC3)cc1                    30

[1] CSc1ccc(-c2cn3c(c2-c2ccccc2)CCC3)cc1
[2] COC1c2c(-c3ccccc3)c(-c3ccc(Cl)cc3)c(C)n2CC1(C)C (stereo unspecified)
Ask | In terms of reported IC50, does 1 or 2 have the smaller number? State the label of the item chosen.
Reply | 1
(1: 1000 nM, 2: 7500 nM)

* * *

Organism: Mus musculus
Test: Analgesic activity in mouse assessed as inhibition of acetic acid-induced writhing response relative to aspirin
Assay type: functional
quantity_name: fold change (FC)

> print(dat)
                                   molecule  observed.measurement
1  O=C(c1ccc(Cl)cc1)c1ccc2n1CC(C(=O)O)C2 (stereo unspecified)                   <10

Ask | Entry O=C(c1ccc(Cl)cc1)c1ccc2n1CCCC2C(=O)O (stereo unspecified) has what fold change (FC)?
Reply | <1

Ask | Entry O=C(c1ccc2n1CCC2C(=O)O)C1CCC1 (stereo unspecified) has what fold change (FC)?
Reply | 30

Ask | Entry Cc1ccc(C(=O)c2ccc3n2CCCC3C(=O)O)cc1 (stereo unspecified) has what fold change (FC)?
Reply | <0.5

Ask | Entry C[S+]([O-])c1ccc(C(=O)c2ccc3n2CCCC3C(=O)O)cc1 (stereo unspecified) has what fold change (FC)?
Reply | -0.5

Ask | Entry O=C(c1ccc(F)cc1)c1ccc2n1CCCC2C(=O)O (stereo unspecified) has what fold change (FC)?
Reply | <10
